- Assayed Target: μ(MOP) (h) receptor (Homo sapiens, UniProt P35372)
- Construct: expressed in transfected cells; host or cells: CHO cells
- Sequence (P35372 whole entry): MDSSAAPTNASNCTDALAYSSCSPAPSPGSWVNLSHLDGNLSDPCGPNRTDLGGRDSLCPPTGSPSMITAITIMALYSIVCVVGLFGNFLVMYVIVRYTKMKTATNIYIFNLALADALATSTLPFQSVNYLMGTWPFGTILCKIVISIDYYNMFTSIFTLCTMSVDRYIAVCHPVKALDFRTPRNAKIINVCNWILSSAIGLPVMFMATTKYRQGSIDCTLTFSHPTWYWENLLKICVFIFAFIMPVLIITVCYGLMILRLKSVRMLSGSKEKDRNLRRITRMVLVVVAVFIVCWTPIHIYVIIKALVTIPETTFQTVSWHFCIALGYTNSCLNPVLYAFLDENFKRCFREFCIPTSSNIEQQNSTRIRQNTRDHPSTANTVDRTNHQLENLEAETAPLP
- Measurement Description: Cellular functional assay, μ (MOP) (h) antagonist effect (cAMP, HTRF)
- Assay type: cell-based
- Experimental Setup: unit inferred; highest concentration tested
pIC50: −log10 of the molar value.
Reported Endpoint: pIC50

pIC50 reading for O=C1CN2c3c(cccc3[C@@H]3CN(CCCC(=O)c4ccncc4)CC[C@@H]32)N1 : < 5.00

* * *

- Assayed Target: Mu opiate receptor (Homo sapiens)
- Measurement Description: Receptor binding Mu opiate receptor
- Experimental Setup: read-out: Ki (nM) or maximum inhibition
Reported Endpoint: Ki (nM)
Give the number; nM is assumed, so skip it.

Form field, Ki with Mu opiate receptor (Homo sapiens), item O=C1CN2c3c(cccc3[C@@H]3CN(CCCC(=O)c4ccncc4)CC[C@@H]32)N1 [Formula II-C] : 400

* * *

- Assayed Target: μ(MOP) (h) receptor (Homo sapiens, UniProt P35372)
- Construct: expressed in transfected cells; host or cells: CHO cells
- Measurement Description: Cellular functional assay, μ (MOP) (h) antagonist effect (cAMP, HTRF)
- Type: cell-based
- Experimental Setup: human recombinant CHO cells, DAMGO (20 nM) stimulus, cAMP
- Procedure: Cellular and Nuclear Receptor Functional Assays are performed on the compounds of Formula II-B and according to the procedure of Wang, J. B. et al. (1994), FEBS Lett., 338:217-222. […] Cellular agonist effects are calculated as percent of control response to a known reference agonist for each target and cellular antagonist effect is calculated as a percent inhibition of control reference agonist response for each target. […] The results are expressed as a percent of control agonist response: […]
Reported Endpoint: pIC50
Scale note: pIC50 = -log10(concentration in M).

Form field, pIC50 with μ(MOP) (h) receptor (Homo sapiens, UniProt P35372), item CN1C(=O)CN2c3c(cccc31)[C@@H]1CN(CCCC(=O)c3ccncc3)CC[C@@H]12 [Formula II-B] : 5.89

* * *

- Assayed Target: D1 (Homo sapiens)
- Sequence (P21728 whole entry): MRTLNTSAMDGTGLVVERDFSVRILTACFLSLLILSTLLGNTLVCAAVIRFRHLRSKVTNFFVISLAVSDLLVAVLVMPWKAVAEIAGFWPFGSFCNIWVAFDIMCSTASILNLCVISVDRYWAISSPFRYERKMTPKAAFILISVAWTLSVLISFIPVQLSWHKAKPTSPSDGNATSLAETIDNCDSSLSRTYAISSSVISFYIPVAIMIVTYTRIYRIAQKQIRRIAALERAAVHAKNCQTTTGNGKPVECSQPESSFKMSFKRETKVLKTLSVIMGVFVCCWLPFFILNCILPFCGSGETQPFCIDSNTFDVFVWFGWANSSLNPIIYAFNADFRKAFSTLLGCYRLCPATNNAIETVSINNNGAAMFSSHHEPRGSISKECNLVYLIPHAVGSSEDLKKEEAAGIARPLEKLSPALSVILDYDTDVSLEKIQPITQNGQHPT
- Measurement Description: Receptor binding D1
- Experimental Setup: read-out: Ki (nM) or maximum inhibition
- Method: Receptor binding is determined for the Compounds of Formulas II-A and II-B using the tosylate salt of the compound of Formula A as a control. […] In general, the results are expressed as a percent of control specific binding: […] The IC50 values (concentration causing a half-maximal inhibition of control specific binding) and Hill coefficients (nH) are determined by non-linear regression analysis of the competition curves generated with mean replicate values using Hill equation curve fitting: […]
Reported Endpoint: Ki (nM)
Give the number; nM is assumed, so skip it.

Form field, Ki with D1 (Homo sapiens), item O=C1CN2c3c(cccc3[C@@H]3CN(CCCC(=O)c4ccncc4)CC[C@@H]32)N1 : 470

* * *

- Assayed Target: 5-HT2A (Homo sapiens, UniProt P28223)
- Sequence (P28223 whole entry): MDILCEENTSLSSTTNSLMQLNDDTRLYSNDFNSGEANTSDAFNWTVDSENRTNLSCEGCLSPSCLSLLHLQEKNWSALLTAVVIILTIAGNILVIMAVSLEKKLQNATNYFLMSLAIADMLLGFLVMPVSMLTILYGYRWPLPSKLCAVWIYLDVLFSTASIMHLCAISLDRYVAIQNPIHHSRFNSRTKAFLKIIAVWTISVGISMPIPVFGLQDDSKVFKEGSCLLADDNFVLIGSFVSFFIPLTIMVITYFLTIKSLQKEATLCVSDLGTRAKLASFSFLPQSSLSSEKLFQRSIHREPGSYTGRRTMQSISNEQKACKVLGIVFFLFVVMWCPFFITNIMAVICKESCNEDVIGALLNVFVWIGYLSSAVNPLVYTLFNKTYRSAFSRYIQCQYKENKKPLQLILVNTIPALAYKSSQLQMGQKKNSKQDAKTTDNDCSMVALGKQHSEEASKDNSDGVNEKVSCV
- Measurement Description: Receptor binding 5-HT2A
- Experimental Setup: read-out: Ki (nM) or maximum inhibition
Reported Endpoint: Ki (nM)
Give the number; nM is assumed, so skip it.

Form field, Ki with 5-HT2A (Homo sapiens, UniProt P28223), item O=C1CN2c3c(cccc3[C@@H]3CN(CCCC(=O)c4ccncc4)CC[C@@H]32)N1 [Formula II-C] : 37

Each recorded value in this set is attributed to patent US10961245B2.
